Cited source: paper PMC10418735

- EXPERIMENTAL_DETAILS: Lipophilicity by RP-TLC (methanol/water, HPTLC 60RP-18 plates)
- Type: physicochemical
- SETTINGS: RP-TLC, methanol/water
RECORDED_ENDPOINT: −S (slope of the regression curve), RP–TLC

molecule=CC(C)(C)NC1=NC(=O)C2(CCC2)S1 test_value=2.476
molecule=CC(C)(C)NC1=NC(=O)C2(CCCCC2)S1 test_value=2.477
molecule="CC(C)NC1=NC(=O)C(C)S1 (stereo not shown)" test_value=1.280
molecule=CC(C)NC1=NC(=O)C2(CCC2)S1 test_value=1.990
molecule="O=C1N=C(NC23CC4CC(CC(C4)C2)C3)SC1c1ccc(Br)cc1 (stereo not shown)" test_value=3.277
molecule="CC(C)NC1=NC(=O)C(c2ccccc2)S1 (stereo not shown)" test_value=2.049
molecule="CC1SC(NC(C)(C)C)=NC1=O (stereo not shown)" test_value=2.393
molecule="CC(C)(C)NC1=NC(=O)C(c2ccc(Br)cc2)S1 (stereo not shown)" test_value=4.131
molecule="CCCC1SC(NC(C)C)=NC1=O (stereo not shown)" test_value=2.422
molecule="CC(C)C1SC(NC23CC4CC(CC(C4)C2)C3)=NC1=O (stereo not shown)" test_value=3.175
molecule="CCC1SC(NC(C)C)=NC1=O (stereo not shown)" test_value=2.075
molecule=CC(C)(C)NC1=NC(=O)C(C)(C)S1 test_value=1.826
molecule="CC(C)(C)NC1=NC(=O)C(c2ccccc2)S1 (stereo not shown)" test_value=4.293
molecule="CC(C)NC1=NC(=O)C(C(C)C)S1 (stereo not shown)" test_value=2.127
molecule=O=C1N=C(NC23CC4CC(CC(C4)C2)C3)SC12CCCCC2 test_value=3.520
molecule="CCCC1SC(NC23CC4CC(CC(C4)C2)C3)=NC1=O (stereo not shown)" test_value=2.564
molecule=O=C1N=C(NC23CC4CC(CC(C4)C2)C3)SC12CCC2 test_value=3.025
molecule="CCCC1SC(NC(C)(C)C)=NC1=O (stereo not shown)" test_value=2.426
molecule="CC1SC(NC23CC4CC(CC(C4)C2)C3)=NC1=O (stereo not shown)" test_value=3.148
molecule="O=C1N=C(NC23CC4CC(CC(C4)C2)C3)SC1c1ccccc1 (stereo not shown)" test_value=4.203
molecule="CCC1SC(NC23CC4CC(CC(C4)C2)C3)=NC1=O (stereo not shown)" test_value=2.678
molecule="CCC1SC(NC(C)(C)C)=NC1=O (stereo not shown)" test_value=2.478

---

As shown below, each of these molecules has a reported Φ0 (chromatographic lipophilicity parameter), RP–TLC value.
- EXPERIMENTAL_DETAILS: Lipophilicity by RP-TLC (methanol/water, HPTLC 60RP-18 plates)
- Type: physicochemical
- SETTINGS: Φ0 = −RM0/S
RECORDED_ENDPOINT: Φ0 (chromatographic lipophilicity parameter), RP–TLC

molecule="CC(C)NC1=NC(=O)C(c2ccccc2)S1 (centres unmarked)" test_value=0.771
molecule="CCC1SC(NC23CC4CC(CC(C4)C2)C3)=NC1=O (centres unmarked)" test_value=0.860
molecule=CC(C)(C)NC1=NC(=O)C(C)(C)S1 test_value=0.652
molecule=O=C1N=C(NC23CC4CC(CC(C4)C2)C3)SC12CCCCC2 test_value=0.879
molecule=O=C1N=C(NC23CC4CC(CC(C4)C2)C3)SC12CCC2 test_value=0.847

---

- EXPERIMENTAL_DETAILS: Lipophilicity by RP-TLC (methanol/water, HPTLC 60RP-18 plates)
- Type: physicochemical
- SETTINGS: RP-TLC, methanol/water
RECORDED_ENDPOINT: −S (slope of the regression curve), RP–TLC

molecule=CC(C)NC1=NC(=O)C(C)(C)S1 test_value=1.903
molecule=O=C1CSC(NC23CC4CC(CC(C4)C2)C3)=N1 test_value=2.482
molecule="CC(C)NC1=NC(=O)C(c2ccc(Br)cc2)S1 (stereo not drawn)" test_value=3.870
molecule="CC(C)C1SC(NC(C)(C)C)=NC1=O (stereo not drawn)" test_value=2.095
molecule=CC1(C)SC(NC23CC4CC(CC(C4)C2)C3)=NC1=O test_value=2.446
molecule=CC(C)NC1=NC(=O)C2(CCCCC2)S1 test_value=2.877

---

- EXPERIMENTAL_DETAILS: Lipophilicity by RP-HPLC (methanol/water, RP-18 column)
- Type: physicochemical
- SETTINGS: RP-HPLC, methanol/water
RECORDED_ENDPOINT: −S (slope of the regression curve), RP–HPLC

compound="CC1SC(NC(C)(C)C)=NC1=O (stereo not shown) [Compound 10]" test_value=3.122
compound="CC(C)NC1=NC(=O)C2(CCC2)S1 [Compound 9]" test_value=2.890
compound="CC(C)(C)NC1=NC(=O)C(C)(C)S1 [Compound 14]" test_value=3.320
compound="CC(C)NC1=NC(=O)C2(CCCCC2)S1 [Compound 8]" test_value=4.170
compound="CCC1SC(NC23CC4CC(CC(C4)C2)C3)=NC1=O (stereo not shown) [Compound 20]" test_value=4.437
compound="CC(C)(C)NC1=NC(=O)C(c2ccccc2)S1 (stereo not shown) [Compound 15]" test_value=4.449
compound="O=C1CSC(NC23CC4CC(CC(C4)C2)C3)=N1 [Compound 28, 2-(Adamantylamino)thiazol-4(5H)-one]" test_value=3.783
compound="O=C1N=C(NC23CC4CC(CC(C4)C2)C3)SC12CCC2 [Compound 27]" test_value=4.383
compound="CCC1SC(NC(C)C)=NC1=O (stereo not shown) [Compound 2]" test_value=3.254
compound="CC1SC(NC23CC4CC(CC(C4)C2)C3)=NC1=O (stereo not shown) [Compound 19]" test_value=4.099

---

As shown below, each of these compounds has a reported RM0 value.
- EXPERIMENTAL_DETAILS: Lipophilicity by RP-TLC (methanol/water, HPTLC 60RP-18 plates)
- Format: physicochemical
- SETTINGS: RP-TLC, methanol/water, extrapolated to zero methanol concentration, 22 °C
RECORDED_ENDPOINT: RM0

compound="CC(C)NC1=NC(=O)C(C(C)C)S1 (centres unmarked) [Compound 4]" test_value=1.41
compound="CC(C)NC1=NC(=O)C(c2ccc(Br)cc2)S1 (centres unmarked) [Compound 7]" test_value=2.85
compound="CC(C)(C)NC1=NC(=O)C(C)(C)S1 [Compound 14]" test_value=1.19
compound="CC1SC(NC(C)(C)C)=NC1=O (centres unmarked) [Compound 10]" test_value=1.57
compound="CC(C)C1SC(NC(C)(C)C)=NC1=O (centres unmarked) [Compound 13]" test_value=1.46
compound="CC(C)NC1=NC(=O)C(c2ccccc2)S1 (centres unmarked) [Compound 6]" test_value=1.58
compound="CC(C)NC1=NC(=O)C(C)S1 (centres unmarked) [Compound 1]" test_value=0.94
compound="O=C1N=C(NC23CC4CC(CC(C4)C2)C3)SC12CCC2 [Compound 27]" test_value=2.56
compound="CCCC1SC(NC(C)(C)C)=NC1=O (centres unmarked) [Compound 12]" test_value=1.71
compound="CC(C)(C)NC1=NC(=O)C(c2ccccc2)S1 (centres unmarked) [Compound 15]" test_value=3.17
compound="CC1SC(NC23CC4CC(CC(C4)C2)C3)=NC1=O (centres unmarked) [Compound 19]" test_value=2.55

---

- EXPERIMENTAL_DETAILS: Lipophilicity by RP-HPLC (methanol/water, RP-18 column)
- Type: physicochemical
- SETTINGS: RP-HPLC, methanol/water, extrapolated to zero methanol concentration, 25 °C
As shown below, each of these compounds has a reported log kw value.
RECORDED_ENDPOINT: log kw

compound="CC(C)NC1=NC(=O)C(c2ccc(Br)cc2)S1 (centres unmarked) [Compound 7]" recorded_endpoint="log kw" test_value=3.22
compound="CCCC1SC(NC23CC4CC(CC(C4)C2)C3)=NC1=O (centres unmarked) [Compound 21]" recorded_endpoint="log kw" test_value=4.08
compound="O=C1N=C(NC23CC4CC(CC(C4)C2)C3)SC12CCC2 [Compound 27]" recorded_endpoint="log kw" test_value=3.66
compound="CCC1SC(NC23CC4CC(CC(C4)C2)C3)=NC1=O (centres unmarked) [Compound 20]" recorded_endpoint="log kw" test_value=3.6
compound="O=C1N=C(NC23CC4CC(CC(C4)C2)C3)SC12CCCCC2 [Compound 26]" recorded_endpoint="log kw" test_value=4.49
compound="CC(C)NC1=NC(=O)C(C(C)C)S1 (centres unmarked) [Compound 4]" recorded_endpoint="log kw" test_value=2.28
compound="O=C1N=C(NC23CC4CC(CC(C4)C2)C3)SC1c1ccc(Br)cc1 (centres unmarked) [Compound 25]" recorded_endpoint="log kw" test_value=5.63
compound="CCC1SC(NC(C)(C)C)=NC1=O (centres unmarked) [Compound 11]" recorded_endpoint="log kw" test_value=1.88
compound="CC(C)NC1=NC(=O)C(C)(C)S1 [Compound 5]" recorded_endpoint="log kw" test_value=1.94
compound="CC(C)(C)NC1=NC(=O)C(C)(C)S1 [Compound 14]" recorded_endpoint="log kw" test_value=2.02
compound="CCC1SC(NC(C)C)=NC1=O (centres unmarked) [Compound 2]" recorded_endpoint="log kw" test_value=1.86
